GI50 overview
Tested on: SK-OV-3
ASSAY PROTOCOL: NCI tumour cell line growth inhibition, 48 h
Activity calls are given as the source filed them. Rule as the data show it: active = GI50 up to about 1.1 µM and inactive = higher. Square brackets hold non-standard residues; d marks the D form. Peptide text beside a SMILES is read from it. * marks the point of attachment. Tyr(3-Br) = N[C@@H](Cc1ccc(O)c(Br)c1)C(=O)O; Boc = CC(C)(C)OC(=O)*

Previously resolved entries follow.
Cc1ccc(S(=O)(=O)C(C#N)c2nc3ccccc3nc2-n2ccnc2)cc1 (stereo not drawn) | > 100 µM (inactive)
COC(=O)[C@H](Cc1ccc(O)c(Br)c1)NC(=O)[C@H](Cc1ccc(O)cc1)NC(=O)OC(C)(C)C (Boc-Tyr-[Tyr(3-Br)]-OMe) | > 100 µM (inactive)
COC1(CC[C@@H](C)COC2OC(CO)C(O)C(O)C2O)OC2C[C@H]3[C@@H]4CC[C@H]5C[C@@H](OC6OC(CO)C(OC7OC(CO)C(O)C(O)C7O)C(O)C6OC6OC(C)C(O)C(O)C6O)[C@H](O)C[C@]5(C)[C@H]4CC[C@]3(C)C2[C@@H]1C (stereo partly drawn) | 1.87 µM (inactive)

What value of GI50 has been reported for the following compound? COc1ccc(OC(C(=O)O)c2ccccc2)c2c1CCCC2=O (stereo not drawn) > 100 µM (inactive)

What about this compound? "COc1ccc(C2=C(Cl)c3cc(OC)c(OC)cc3C2=O)cc1OC" 21 µM (inactive)

What about this compound? "COC1=N[C@H](C(C)C)C(OC)=N[C@H]1Cc1ccc(C[C@@H]2N=C(OC)[C@@H](C(C)C)N=C2OC)s1" > 100 µM (inactive)

What about this compound? "COC(=O)c1cc(C)n(CN(Cc2ccccc2)Cn2nc(C(=O)OC)cc2C)n1" > 100 µM (inactive)

What about this compound? "Cc1cc(C2CCCCC2)n(O)c(=O)c1" 47 µM (inactive)

---

Test system: UO-31
ASSAY PROTOCOL: NCI tumour cell line growth inhibition, 48 h
Activity calls are given as the source filed them. No stated cut-off is given here; in the data, active = GI50 up to about 1.1 µM and inactive = higher.
VALUE KIND: GI50

Previously resolved entries follow.
C=CC12CN(C)C3C4COC(CC41)C1(C(=O)Nc4ccccc41)C32 (stereo not given) | > 181 µM (inactive)
Cc1cc2c(cc1Cl)Sc1nnc(C)n1S2(=O)=O | 10.6 µM (inactive)
C[C@H]1CC[C@]2(NC1)O[C@H]1C[C@H]3[C@@H]4CC[C@H]5C[C@@H](O[C@@H]6O[C@H](CO)[C@H](O[C@@H]7O[C@H](CO)[C@@H](O)[C@H](O[C@@H]8OC[C@@H](O)[C@H](O)[C@H]8O)[C@H]7O[C@@H]7O[C@H](CO)[C@@H](O)[C@H](O)[C@H]7O)[C@H](O)[C@H]6O)CC[C@]5(C)[C@H]4CC[C@]3(C)[C@H]1[C@@H]2C | 1.42 µM (inactive)

What value of GI50 has been reported for the following compound? "COC1=C(OC)C(=O)C(Cc2c(Cl)nc3sc(C)cn23)=C(C)C1=O" 17.1 µM (inactive)

What about this compound? "Cc1ccc(Oc2cc(C)ccc2P(=O)(O)O)cc1" > 100 µM (inactive)

---

GI50 overview
Tested on: SK-MEL-2
ASSAY PROTOCOL: NCI tumour cell line growth inhibition, 48 h
Activity calls are given as the source filed them. Cut-off read from the data, not from the text of the source: active = GI50 up to about 1.1 µM and inactive = higher.

COC(=O)C1(O)c2ccccc2N=C2C(=O)c3ccccc3N21 (stereo not given) [METHYLISATOID] | > 100 µM (inactive)
COc1cc(/C=C/C=C2\CC(C)C/C(=C\C=C\c3ccc(O)c(OC)c3)C2=O)ccc1O (stereo not given) | 17.1 µM (inactive)
COc1cc(/C=C2/SC(c3ccccc3)N(c3cc(Cl)ccc3Cl)C2=O)cc(OC)c1OC (stereo not given) | > 100 µM (inactive)
CC(C)CC(N)C(=O)Nc1ccc2ccccc2c1 (stereo not given) | > 100 µM (inactive)

Now for the compound whose GI50 we want.
What value of GI50 has been reported for the following compound? "O=c1c2ccccc2nc2n1-c1ccccc1SC2" > 100 µM (inactive)
